# TEST_SYSTEM: PEPT1 (Mus musculus)
# Sequence (Q9JIP7 whole entry): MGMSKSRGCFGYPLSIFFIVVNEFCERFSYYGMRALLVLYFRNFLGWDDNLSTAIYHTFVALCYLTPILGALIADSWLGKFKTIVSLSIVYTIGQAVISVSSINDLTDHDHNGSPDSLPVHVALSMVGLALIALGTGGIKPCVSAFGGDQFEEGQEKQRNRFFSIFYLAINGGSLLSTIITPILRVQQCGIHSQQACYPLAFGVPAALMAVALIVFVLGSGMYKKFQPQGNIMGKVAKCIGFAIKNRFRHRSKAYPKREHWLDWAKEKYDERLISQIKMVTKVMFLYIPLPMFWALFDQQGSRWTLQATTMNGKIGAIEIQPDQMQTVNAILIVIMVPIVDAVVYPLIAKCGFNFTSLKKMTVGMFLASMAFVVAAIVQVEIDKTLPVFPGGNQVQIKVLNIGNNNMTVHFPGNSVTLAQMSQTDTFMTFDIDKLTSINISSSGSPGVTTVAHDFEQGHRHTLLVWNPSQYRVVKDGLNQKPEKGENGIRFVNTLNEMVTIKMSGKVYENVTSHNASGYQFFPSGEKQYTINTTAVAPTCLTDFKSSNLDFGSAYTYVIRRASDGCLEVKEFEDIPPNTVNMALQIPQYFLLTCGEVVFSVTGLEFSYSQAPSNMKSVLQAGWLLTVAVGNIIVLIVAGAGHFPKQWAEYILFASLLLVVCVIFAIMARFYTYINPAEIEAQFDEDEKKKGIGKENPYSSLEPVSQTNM
# TEST: Drug uptake in Pichia pastoris GS115 expressing mouse recombinant PEPT1 at 5 uM after 30 mins by dual-channel liquid scintillation counting analysis relative to vector control
# Format: ADME
# CONDITION_PARAMETERS: read-out: FC

COMPOUND	uptake ratio at 0.5 h, 5 µM
[3H]C(C(=O)O)N(C)C(=O)CN (stereo unspecified)	100

meta.source: ChEMBL document CHEMBL3526053
